Target: human TRPA1 (Homo sapiens (Human))
Assay: Measurement of TRPA1 antagonist activity (1): intracellular calcium increase
Assay type: cell-based
Conditions: 293T cells transfected with human TRPA1 expression plasmid; allylisothiocyanate 20 μM stimulation; intracellular calcium fluorescence; read-out: hTRPA1 IC50
ASSAY ENDPOINT: IC50 (nM)

Examples with answers:
COMPOUND | ASSAYED TARGET | IC50, nM
O=C(NCc1ccnc(-c2ccc(C(F)(F)F)cc2O)c1)[C@@H]1CCCN1S(=O)(=O)c1cc2cc(F)ccc2o1 [Example 138] | human TRPA1 (Homo sapiens (Human)) | 0.97
C[C@H](NS(=O)(=O)c1cc2cc(F)ccc2o1)C(=O)NCc1ccc(O)c(-c2ccc(C(F)(F)F)cn2)c1 [Example 252] | human TRPA1 (Homo sapiens (Human)) | 14
N#Cc1ccc(-c2cc(CNC(=O)[C@@H]3CCCN3S(=O)(=O)c3cc4ccccc4o3)ccn2)cc1 [Example 117] | human TRPA1 (Homo sapiens (Human)) | 14
O=C(NCc1cc(-c2ccc(C(F)(F)F)cn2)ccn1)[C@@H]1CCCCN1S(=O)(=O)c1cc2cc(F)ccc2o1 [Example 261] | human TRPA1 (Homo sapiens (Human)) | 37
COc1c(F)ccc(CNC(=O)[C@@H]2CCCN2S(=O)(=O)c2cc3ccccc3o2)c1F [Example 68] | human TRPA1 (Homo sapiens (Human)) | 390
N#Cc1cccc(-c2cc(CNC(=O)[C@@H]3CCCN3S(=O)(=O)c3cc4ccccc4o3)ccn2)c1 [Example 118] | human TRPA1 (Homo sapiens (Human)) | 260
C[C@H](NS(=O)(=O)c1cc2ccccc2o1)C(=O)NCc1cc(C(F)(F)F)ccc1Cl [Example 72] | human TRPA1 (Homo sapiens (Human)) | 350
C[C@H](NS(=O)(=O)c1cc2cc(F)ccc2o1)C(=O)NCc1ccc(O)c(-c2cnc(C(F)(F)F)cn2)c1 [Example 254] | human TRPA1 (Homo sapiens (Human)) | 80

(1) COc1cc(CNC(=O)[C@@H]2CCCN2S(=O)(=O)c2cc3ccccc3o2)cc(-c2ccc(C(F)(F)F)nc2)c1 [Example 310]
(2) C[C@H](NS(=O)(=O)c1cc2cc(F)ccc2o1)C(=O)NCc1ccnc(-c2ccc(C(F)(F)F)cc2O)c1 [Example 181]
Task item: Could you tell me which of 1 and 2 has the lower IC50 reading? Answer by quoting the chosen item's label.
Reply: 1

(1) O=C(NCc1ccc(OC(F)(F)F)cc1)[C@@H]1CCCN1S(=O)(=O)c1cc2cc(F)ccc2o1 [Example 66]
(2) O=C(NCc1ccnc(NCc2ccc(C(F)(F)F)cc2)c1)[C@@H]1CCCN1S(=O)(=O)c1cc2ccccc2o1 [Example 186]
(3) O=C(NCc1cc(-c2ccc(C(F)(F)F)cn2)ncn1)[C@@H]1CCCN1S(=O)(=O)c1cc2ccccc2o1 [Example 206]
Task item: Put the items in sequence by IC50, from largest down. List the labels in the requested order.
Reply: 2, 1, 3

(1) CN(C)c1ncc(-c2ccc(F)c(CNC(=O)[C@@H]3CCCN3S(=O)(=O)c3cc4ccccc4o3)c2)cn1 [Example 174]
(2) C[C@H](NS(=O)(=O)c1cc2cc(F)ccc2o1)C(=O)NCc1cc(-c2ccc(C(F)(F)F)cc2)ncn1 [Example 109]
Task item: Between the entries labelled 1 and 2 , which has a larger IC50 value on record? Answer by quoting the chosen item's label.
Reply: 1
(1: 29 nM, 2: 4.7 nM)

====

Molecular target: human TRPA1 (Homo sapiens (Human))
Assay: Measurement of TRPA1 antagonist activity (1): intracellular calcium increase
Assay type: cell-based
Conditions: 293T cells transfected with human TRPA1 expression plasmid; allylisothiocyanate 20 μM stimulation; intracellular calcium fluorescence; read-out: hTRPA1 IC50
pIC50: −log10 of the molar value.
ASSAY ENDPOINT: pIC50

MOLECULE | pIC50
O=C(NCc1ccc(O)c(-c2ncc(C(F)(F)F)cn2)c1)[C@@H]1CCCN1S(=O)(=O)c1cc2ccccc2o1 | 7.33
O=C(NCc1cccc([S+]([O-])Cc2ccc(C(F)(F)F)cc2)c1)[C@@H]1CCCN1S(=O)(=O)c1cc2ccccc2o1 (stereo partly shown) | 6.64
N#Cc1ccc(-c2cc(CNC(=O)[C@@H]3CCCN3S(=O)(=O)c3cc4ccccc4o3)ccn2)c(OCc2ccccc2)c1 | 7.11
O=C(NCc1cncc(-c2ccc(C(F)(F)F)cn2)c1)[C@@H]1CCCN1S(=O)(=O)c1cc2ccccc2o1 | 7.59
O=C(NCc1cc(-c2ccc(C(F)(F)F)nc2)ncn1)[C@@H]1CCCN1S(=O)(=O)c1cc2cc(F)ccc2o1 | 9.18
O=C(NCc1ccnc(-c2cc(Cl)cs2)c1)[C@@H]1CCCN1S(=O)(=O)c1cc2ccccc2o1 | 7.05
O=C(NCc1cccc(OCc2ccccc2)c1)[C@@H]1CCCN1S(=O)(=O)c1cc2cnccc2o1 | 8.19
CNc1nc(CNC(=O)[C@@H]2CCCN2S(=O)(=O)c2cc3ccccc3o2)cc(-c2ccc(C(F)(F)F)cc2)n1 | 7.54
C[C@H](NS(=O)(=O)c1cc2cnccc2o1)C(=O)NCc1cc(-c2ccc(OC(F)(F)F)cc2)ncn1 | 7.59
O=C(NCc1cccc(OCc2ccc(C(F)(F)F)cc2)c1)[C@@H]1[C@@H](O)CCN1S(=O)(=O)c1cc2ccccc2o1 | 7.46

(a) O=C(NCc1ccnc(-c2cc3ccccc3[nH]2)c1)[C@@H]1CCCN1S(=O)(=O)c1cc2ccccc2o1
(b) O=C(NCc1cccc(-c2ccc(Cl)cc2)c1)[C@@H]1CCCN1S(=O)(=O)c1cc2cc(F)ccc2o1
Task item: Could you tell me which of a and b has the lower pIC50 reading? Answer by quoting the chosen item's label.
Reply: a
(a: 6.49, b: 8.68)

(P) O=C(NCc1ccc(-c2ccccc2C(F)(F)F)cc1)[C@@H]1CCCN1S(=O)(=O)c1cc2ccccc2o1
(Q) CN(C)c1ccc(-c2cccc(CNC(=O)[C@@H]3CCCN3S(=O)(=O)c3cc4cc(F)ccc4o3)c2)cn1
(R) O=C(NCc1ccc(Oc2cccc(C(F)(F)F)c2)cc1)[C@@H]1CCCN1S(=O)(=O)c1cc2cc(F)ccc2o1
(S) O=C(NCc1cncc(-c2ccc(C(F)(F)F)nc2)c1)[C@@H]1CCCN1S(=O)(=O)c1cc2cc(F)ccc2o1
Task item: Arrange items by their pIC50 values in increasing order. List the labels in the requested order.
Reply: P, R, Q, S

(I) O=C(NCc1cc(-c2ccc(C(F)(F)F)cn2)ccn1)[C@@H]1C[C@@H](O)CN1S(=O)(=O)c1cc2cc(F)ccc2o1
(II) O=C(NCc1ccnc(-c2cc(C(F)(F)F)n[nH]2)c1)[C@@H]1CCCN1S(=O)(=O)c1cc2ccccc2o1
Task item: Could you tell me which of I and II has the lower pIC50 reading? Answer by quoting the chosen item's label.
Reply: II

====

Target: human TRPA1 (Homo sapiens (Human), UniProt O75762)
Sequence (O75762 whole entry): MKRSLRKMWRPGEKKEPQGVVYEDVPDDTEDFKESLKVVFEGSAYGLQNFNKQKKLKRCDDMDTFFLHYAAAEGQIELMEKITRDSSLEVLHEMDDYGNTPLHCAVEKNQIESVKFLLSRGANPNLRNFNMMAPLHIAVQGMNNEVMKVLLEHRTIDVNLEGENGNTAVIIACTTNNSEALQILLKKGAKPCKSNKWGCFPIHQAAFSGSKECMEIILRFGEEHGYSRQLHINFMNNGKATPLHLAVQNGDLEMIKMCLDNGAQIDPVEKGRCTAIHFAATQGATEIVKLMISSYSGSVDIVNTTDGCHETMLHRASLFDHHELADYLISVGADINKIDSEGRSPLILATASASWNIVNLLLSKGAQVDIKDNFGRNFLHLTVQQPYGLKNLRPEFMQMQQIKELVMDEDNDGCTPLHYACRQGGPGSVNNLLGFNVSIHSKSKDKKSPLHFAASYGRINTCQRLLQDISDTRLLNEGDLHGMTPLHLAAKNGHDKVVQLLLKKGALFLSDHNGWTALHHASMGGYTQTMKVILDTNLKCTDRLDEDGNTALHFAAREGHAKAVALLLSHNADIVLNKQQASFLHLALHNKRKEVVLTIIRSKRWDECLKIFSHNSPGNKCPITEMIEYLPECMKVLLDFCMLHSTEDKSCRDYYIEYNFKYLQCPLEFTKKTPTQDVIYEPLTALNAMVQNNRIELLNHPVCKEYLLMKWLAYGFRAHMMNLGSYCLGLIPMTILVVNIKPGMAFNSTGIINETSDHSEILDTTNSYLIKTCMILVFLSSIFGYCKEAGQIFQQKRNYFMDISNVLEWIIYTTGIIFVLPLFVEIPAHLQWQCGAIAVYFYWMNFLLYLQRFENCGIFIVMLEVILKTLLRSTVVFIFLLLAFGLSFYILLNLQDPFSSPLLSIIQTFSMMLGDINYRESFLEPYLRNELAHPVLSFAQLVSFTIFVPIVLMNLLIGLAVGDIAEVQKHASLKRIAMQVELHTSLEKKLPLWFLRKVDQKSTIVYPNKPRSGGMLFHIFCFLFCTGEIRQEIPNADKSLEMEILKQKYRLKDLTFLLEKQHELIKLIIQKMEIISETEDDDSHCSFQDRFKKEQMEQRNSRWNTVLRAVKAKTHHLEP
Assay: Measurement of TRPA1 antagonist activity (2): as (1), different lot of human TRPA1 expression plasmid
Type: cell-based
Settings: 293T cells transfected with human TRPA1, allylisothiocyanate 20 μM stimulation, calcium fluorescence, read-out: hTRPA1 IC50
ASSAY ENDPOINT: IC50 (nM)

Examples with answers:
SMILES STRUCTURE | MEAS VALUE
CCN([C@@H](C)C(=O)NCc1cc(-c2ccc(C(F)(F)F)cn2)ccn1)S(=O)(=O)c1cc2cc(F)ccc2o1 | 4.2
O=C(NCc1cc(-c2cnc(C(F)(F)F)cn2)ccn1)[C@@H]1CCCN1S(=O)(=O)c1cc2cc(F)ccc2o1 | 3.5

(a) O=C(NCc1cc(-c2cnc(C(F)(F)F)nc2)ncn1)[C@@H]1CCN1S(=O)(=O)c1cc2cc(F)ccc2o1
(b) CN(C)c1nc(CNC(=O)[C@@H]2CCCN2S(=O)(=O)c2cc3ccccc3o2)cc(-c2ccc(C(F)(F)F)cc2O)n1
(c) CCN(CC(=O)NCc1cc(-c2ccc(C(F)(F)F)cc2)ncn1)S(=O)(=O)c1cc2cc(F)ccc2o1
(d) C[C@@H](C(=O)NCc1cc(-c2ccc(C(F)(F)F)cn2)ccn1)N(C)S(=O)(=O)c1cc2cc(F)ccc2o1
Task item: Arrange items by their IC50 values in increasing order. List the labels in the requested order.
Reply: c, d, b, a
(c: 4.1 nM, d: 7.7 nM, b: 21 nM, a: 55 nM)

(1) O=C(NCc1ccc(O)c(-c2ccc(C(F)(F)F)nn2)c1)[C@@H]1CCCN1S(=O)(=O)c1cc2ccccc2o1
(2) CN(C)c1nc(CNC(=O)[C@@H]2CCCN2S(=O)(=O)c2cc3cc(F)ccc3o2)cc(-c2ccc(C(F)(F)F)cc2O)n1
Task item: Could you tell me which of 1 and 2 has the lower IC50 reading? Answer by quoting the chosen item's label.
Reply: 1
(1: 3.1 nM, 2: 6.8 nM)

(A) C[C@H](NS(=O)(=O)c1cc2cc(F)ccc2o1)C(=O)NCc1cc(-c2ccc(C(F)(F)F)cc2)nc(N(C)C)n1
(B) O=C(CNS(=O)(=O)c1cc2cc(F)ccc2o1)NCc1cc(-c2ccc(C(F)(F)F)cn2)ccn1
(C) CN(C)c1nc(CNC(=O)[C@@H]2CCN2S(=O)(=O)c2cc3ccccc3o2)cc(-c2ccc(C(F)(F)F)nc2)n1
(D) O=C(NCc1cc(-c2cnc(C(F)(F)F)cn2)ccn1)[C@@H]1CCN1S(=O)(=O)c1cc2cc(F)ccc2o1
Task item: Put the items in sequence by IC50, from largest down. List the labels in the requested order.
Reply: B, A, C, D

(I) C[C@H](NS(=O)(=O)c1cc2cnccc2o1)C(=O)NCc1cc(-c2ccc(C(F)(F)F)cc2)nc(N(C)C)n1
(II) CN(C(C)(C)C(=O)NCc1cc(-c2ccc(C(F)(F)F)cn2)ccn1)S(=O)(=O)c1cc2cc(F)ccc2o1
Task item: Could you tell me which of I and II has the lower IC50 reading? Answer by quoting the chosen item's label.
Reply: I
